Test system: CP238
Test: qHTS profiling for inhibitors of Plasmodium falciparum proliferation (AID 504749); note: nearly all actives have a fitted effect of over 60% in size
Details: P. falciparum in erythrocytes, SYBR Green DNA, 72 h; series mostly up to 28.7 µM
Results filed as inconclusive are left out. Active and inactive are the calls of the source. Calls come from the whole dose curve; as a rule, active = well fitted inhibition curve with a large enough effect; inconclusive = small, poorly fitted or top-dose-only effect; inactive = flat fitted curve, though single readings scatter.
Your response should consist of one outcome taken from 1 = active, -1 = inactive

Answered cases to consult:
CC[C@@H](CO)NC(=O)[C@@H]1C=C2c3cccc4[nH]cc(c34)C[C@H]2N(C)C1; -1
Cc1ncc(CNC(=O)N(CCCl)N=O)c(N)n1; -1
CCOC(=O)C1(c2ccccc2)CCN(CCC(C#N)(c2ccccc2)c2ccccc2)CC1; 1
C=C(C)[C@H]1Cc2c(ccc3c2O[C@@H]2COc4cc(OC)c(OC)cc4[C@@H]2C3=O)O1; -1
C=C1CC[C@@]2(O)[C@H]3Cc4ccc(O)c5c4[C@@]2(CCN3CC2CC2)[C@H]1O5; -1

Enquiry: I would be grateful if you could indicate the recorded call for CC[N+](CC)(CC)CC .
Return: -1

Enquiry: I would be grateful if you could indicate the recorded call for c1ccc2c(c1)Nc1ccccc1S2 .
Return: -1

* * *

Experiment: Primary qHTS to identify inhibitors of SARS-CoV-2 cell entry (AID 1645846); note: nearly all actives have a fitted effect of over 45% in size
Details: SARS-CoV-2 pseudovirus cell entry assay, luminescence; at 57.1 µM (top of the series) unless noted
Inconclusive results are not listed.
Is activity change, negative = inhibition at least -20%? Then condition met. If not, condition not met.

CCC1(c2ccccc2)C(=O)NCNC1=O; condition met
Cc1ccccc1C(=O)Nc1ccc(C(=O)N2CCCC(O)c3cc(Cl)ccc32)c(C)c1 (stereo unspecified); condition met
COC(=O)CCc1ccc(OCC(O)CNC(C)C)cc1 (stereo unspecified); condition not met
Cc1cccc(C)c1NC(=O)CN1CCCC1=O; condition met
COc1ccccc1Oc1c(NS(=O)(=O)c2ccc(C(C)(C)C)cc2)nc(-c2ncccn2)nc1OCCO; condition met
CC(O)(CS(=O)(=O)c1ccc(F)cc1)C(=O)Nc1ccc(C#N)c(C(F)(F)F)c1 (stereo unspecified); condition not met
CCCN[C@H]1CCc2nc(N)sc2C1; condition met
CC12CC3CC(C)(C1)CC(N)(C3)C2; condition not met

Enquiry: Quick check, activity change, negative = inhibition >= -20%? Cc1oncc1C(=O)Nc1ccc(C(F)(F)F)cc1
Return: condition met

Enquiry: Quick check, activity change, negative = inhibition >= -20%? COc1cc2c(c(OC)c1OC)-c1ccc(OC)c(=O)cc1[C@@H](NC(C)=O)CC2
Return: condition not met

Enquiry: Quick check, activity change, negative = inhibition >= -20%? CC[C@@]1(c2ccccc2)NC(=O)N(C)C1=O
Return: condition not met

* * *

Test system: MCC-26
Assay: qHTS assay to identify novel small-molecules to repurpose for Merkel cell carcinoma treatment (AID 1296009); note: nearly all actives have a fitted effect of over 60% in size; note: potency is the fitted concentration of half-maximal effect
Details: MCC and control cell lines, CellTiter-Glo viability, 72 h; series mostly up to 46 µM
Records with an inconclusive call do not appear. Active and inactive are the calls of the source. Calls come from the whole dose curve; as a rule, active = well fitted inhibition curve with a large enough effect; inconclusive = small, poorly fitted or top-dose-only effect; inactive = flat fitted curve, though single readings scatter.
Result type: Potency

COc1ccc2c(c1OC)CN1CCc3cc4c(cc3C1C2)OCO4 (centres undefined); inactive
C[C@H]1O[C@@H](O[C@H]2[C@@H](O)C[C@H](O[C@H]3[C@@H](O)C[C@H](O[C@H]4CC[C@@]5(C)[C@H](CC[C@@H]6[C@@H]5CC[C@]5(C)[C@@H](C7=CC(=O)OC7)CC[C@]65O)C4)O[C@@H]3C)O[C@@H]2C)C[C@H](O)[C@@H]1O; 42.2 nM (active)
COc1ccc(C(CN(C)C)C2(O)CCCCC2)cc1 (centres undefined); inactive
OCCOc1ccccc1; inactive

* * *

Assay: Drug repurposing screens with cells derived from glioblastoma tumor samples (AID 1345199); note: potency is the fitted concentration of half-maximal effect; nearly all actives have a fitted effect of over 40% in size
Settings: GBM patient neurospheres viability, ATP luminescence, 48 h; tumour line A
Inconclusive results are not listed. Calls of active or inactive are those of the source. The call rests on the fitted dose curve; in most records, active means well fitted inhibition curve with a large enough effect; inconclusive means small, poorly fitted or top-dose-only effect; inactive means flat fitted curve, though single readings scatter.
Result type: Potency

Worked examples follow.
CC(CCc1ccccc1)NC(C)C(O)c1ccc(O)cc1 (stereo not drawn); 14.1 µM (active)
C=C1C[C@@H]2[C@H](CC[C@]3(C)C(=O)CC[C@@H]23)[C@@]2(C)C=CC(=O)C=C12; 12.6 µM (active)

Enquiry: Report Potency for C[C@@H]1O[C@@H](O[C@H]2C[C@@H](O)[C@]3(CO)[C@H]4[C@H](O)C[C@]5(C)[C@@H](C6=CC(=O)OC6)CC[C@]5(O)[C@@H]4CC[C@]3(O)C2)[C@H](O)[C@H](O)[C@H]1O please.
Return: 0.158 µM (active)

Enquiry: Report Potency for O=c1[nH]c2ccccc2n1C1CCN(CCCC(c2ccc(F)cc2)c2ccc(F)cc2)CC1 please.
Return: 2.82 µM (active)

Enquiry: Report Potency for O=C1NCN(c2ccccc2)C12CCN(CC1COc3ccccc3O1)CC2 (stereo not drawn) please.
Return: 12.6 µM (active)

Enquiry: Report Potency for CCN(CC)CCN1C(=O)CN=C(c2ccccc2F)c2cc(Cl)ccc21 please.
Return: 14.1 µM (active)

Enquiry: Report Potency for CCC1(C2=NCCN2)Cc2ccccc2O1 (stereo not drawn) please.
Return: 7.08 µM (active)

Enquiry: Report Potency for O=c1[nH]c2ccccc2n1CCCN1CCC(n2c(=O)[nH]c3cc(Cl)ccc32)CC1 please.
Return: 2.82 µM (active)

Enquiry: Report Potency for Clc1ccc(CCC(Cn2ccnc2)Sc2c(Cl)cccc2Cl)cc1 (stereo not drawn) please.
Return: 1.12 µM (active)

Enquiry: Report Potency for CC[C@@H](CO)NC(=O)[C@@H]1C=C2c3cccc4c3c(cn4C)C[C@H]2N(C)C1 please.
Return: 35.5 µM (active)

Enquiry: Report Potency for CC(C)=CC1C(C(=O)OCc2cccc(Oc3ccccc3)c2)C1(C)C (stereo not drawn) please.
Return: 12.6 µM (active)

Enquiry: Report Potency for CC(C)=CCOc1c2occc2cc2ccc(=O)oc12 please.
Return: 17.8 µM (active)

Enquiry: Report Potency for Clc1cccc(N2CCNCC2)c1 please.
Return: 35.5 µM (active)

* * *

Test: Cytotoxicity counterscreen for inhibitors of SARS-CoV-2 cell entry (AID 1645845); note: nearly all actives have a fitted effect of over 50% in size
Conditions: cell viability (SARS-CoV-2 entry assay cells); series mostly up to 57.1 µM
Description: Assay Provider: Wei Zheng, Ph.D. National Center for Advancing Translational Sciences, National Institute of Health, Rockville, MD. SARS-CoV-2 spike protein, within the viral envelope, mediates viral attachment and infection of host cells. The SARS-CoV-2 spike protein specifically binds to the host receptor ACE2 (Angiotensin-converting enzyme 2). […] 7. […] Dispense 4 uL/well of ATPLite 1step luminescence assay reagent (PerkinElmer #6016739). […] 9. […] Read luminescence signal (Viewlux plate reader, PerkinElmer). […]
Results filed as inconclusive are left out. Activity calls are given as the source filed them. Calls follow the shape of the full dose curve. Numbered stars: 1 amine (or outer) side, 2 acyl side, 3 side chain; on linkers, the order of the positions; unused ones are H or OH. Bridge positions count the residues as written; N and C are the ends. Square brackets hold non-standard residues; d marks the D form. Peptide text beside a SMILES is read from it. I, II: the chains in the order shown. Actinocin(9to1) = Cc1c2oc3c(C)ccc(C(=O)[*:1])c3nc-2c(C(=O)[*:2])c(N)c1=O; NMeV = CN[C@H](C(=O)O)C(C)C; Sar = CNCC(=O)O
Result type: outcome

Cc1c2oc3c(C)ccc(C(=O)N[C@@H]4C(=O)N[C@H](C(C)C)C(=O)N5CCC[C@H]5C(=O)N(C)CC(=O)N(C)[C@@H](C(C)C)C(=O)O[C@@H]4C)c3nc-2c(C(=O)N[C@@H]2C(=O)N[C@H](C(C)C)C(=O)N3CCC[C@H]3C(=O)N(C)CC(=O)N(C)[C@@H](C(C)C)C(=O)O[C@@H]2C)c(N)c1=O (I: T[dV]P[Sar][NMeV] / II: T[dV]P[Sar][NMeV]; ester I:1-I:C, II:1-II:C; linker I:N-II:N via Actinocin(9to1)); inactive
CC/C=C(\C(=O)N[C@@H]1C(=O)N2C(C(=O)OCOC(=O)C(C)(C)C)=C(COC(N)=O)CS[C@H]12)c1csc(N)n1; inactive
Cc1cccc(C)c1OCC(C)N (stereo not given); inactive
CC1(C)O[C@@H]2[C@@H](CO[C@@]3(COS(N)(=O)=O)OC(C)(C)O[C@@H]23)O1; inactive
C[C@H]1O[C@H](O[C@H]2[C@H](O)[C@@H](O)[C@@H](O[C@H]3[C@H](O)[C@@H](O)[C@H](O)O[C@@H]3CO)O[C@@H]2CO)[C@H](O)[C@@H](O)[C@@H]1N[C@H]1C=C(CO)[C@@H](O)[C@H](O)[C@H]1O; inactive
COC(=O)[C@@H]1CC2=CC(=O)CC[C@]2(C)[C@@]23O[C@@H]2C[C@@]2(C)[C@@H](CC[C@@]24CCC(=O)O4)[C@H]13; inactive
OC(Cn1cncn1)(Cn1cncn1)c1ccc(F)cc1F; inactive
CC(=O)Nc1cc([As](=O)(O)O)ccc1O; inactive

Now for the compound whose outcome we want.
Enquiry: Report outcome for CN1CCN(C(=O)O[C@H]2c3nccnc3C(=O)N2c2ccc(Cl)cn2)CC1 please.
Return: inactive

From: PubChem BioAssay (NCATS)
